B1: INTS3 (parent)
chain: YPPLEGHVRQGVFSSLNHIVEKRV

Variants of: B1
Test: protein stability index of a GFP-peptide fusion (GPS, HEK-293T) (PSI 1-6); higher = more stable;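 further: lentivirally expressed fusions sorted by FACS into six bins by GFP to DsRed ratio, PSI derived from sequencing read proportions per bin multiplied by bin number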
Settings: c terminus: a fixed tail appended
Kindly return Yes if reported protein stability index is no lower than 3; return No if it is lower.

Below, 8 variants whose answers are already recorded.
Would you say "G6N" shows protein stability index at minimum 3?
No

Next up: "R9A"
Yes

Now the variant "E21R"
No

Same thing, different variant: "G11I"
No

Now the same for "L4E"
No

Now this one: "R9Q"
Yes

Now the variant "H18K"
No

What do you have for "P2Q" ?
No

Others:
Entry "V8N" : is its protein stability index no less than 3?
No

"R23P" ?
No

Try this variant too: "I19Q"
No

Next variant up: "S14R"
Yes

Then what about the variant "V12N" ?
Yes

Source listed as the supplement of paper PMC10567573.
